For each record, write down the corresponding gametocyte viability.
Test system: Plasmodium falciparum NF54/iGP1_RE9H ulg8 stage V gametocytes
test_details: gametocyte viability (luciferase signal relative to DMSO control) (% of DMSO control); higher = less gametocytocidal activity, active = 50 or less
settings: concentration: 1 µM; exposure time: 72 h
Counter-ions that a name gives are not always drawn.
// response body must contain only the number

Consider the molecule shown here: "CN(C)C/C=C/C(=O)Nc1cc2c(Nc3ccc(F)c(Cl)c3)ncnc2cc1O[C@H]1CCOC1" What is its recorded gametocyte viability? 92

// next record "NC(=O)c1ccc(N(C(N)=O)c2c(F)cccc2F)nc1-c1ccc(F)cc1F" 99.2

// next record "FC(F)c1nc2ccccc2n1-c1nc(N2CCOCC2)nc(N2CCOCC2)n1" 98.5

// next record "Cc1nc(Nc2ncc(C(=O)Nc3c(C)cccc3Cl)s2)cc(N2CCN(CCO)CC2)n1" 95.3

// next record O=c1c(O)c(-c2ccc(O)c(O)c2)oc2cc(O)cc(O)c12 [Quercetin (Sophoretin)] 105

// next record "Cc1cnc(Nc2ccc(N3CCN(C)CC3)cc2)nc1Nc1cccc(S(=O)(=O)NC(C)(C)C)c1" 91.9

// next record "O=c1cc(-c2cccc3c2Sc2ccccc2S3)oc(N2CCOCC2)c1" 110

// next record "CN(C)Cc1cccc(N=C(c2ccccc2)c2c(O)[nH]c3cc(C(=O)N(C)C)ccc23)c1" 116

// next record "N#Cc1c(O)c2c(-c3ccc(-c4ccccc4O)cc3)csc2[nH]c1=O" 97.7

// next record "NC(=O)c1ccc(-c2nc(-c3ccccn3)c(-c3ccc4c(c3)OCO4)[nH]2)cc1" 101

// next record "O=C1Nc2ccc(I)cc2/C1=C/c1cc(Br)c(O)c(Br)c1" 92.1

// next record COc1cc2/c(=N/c3ccc(Br)cc3F)nc[nH]c2cc1OCC1CCN(C)CC1 [Vandetanib (Zactima)] 88.8

// next record "O=C1NC(=O)/C(=C\c2ccc3nccnc3c2)S1" 94.4

// next record "Cc1ccc(NC(=O)c2cccc(N(C)C)c2)cc1NC(=O)c1ccc(O)cc1" 95.9

// next record "C#Cc1cccc(Nc2ncnc3cc(OCCOC)c(OCCO)cc23)c1" 92.8

// next record "CC(=O)c1c(C)c2cnc(Nc3ccc(N4CCNCC4)cn3)nc2n(C2CCCC2)c1=O" 98

// next record "N#C/C(=C\c1ccc(O)c(O)c1)C(N)=O" 93.5

// next record "O=c1ncn2nc(Sc3ccc(F)cc3F)ccc2c1-c1c(Cl)cccc1Cl" 95.2

// next record "COc1ccc(S(=O)(=O)N(CCO)c2ccccc2CN(C)CC=Cc2ccc(Cl)cc2)cc1" 112

// next record "Cc1cc(C(=O)NOCCO)c(Nc2ccc(I)cc2F)n(C)c1=O" 90.8

// next record "N#CC(=Cc1ccc(O)c(O)c1)C(=O)NCc1ccccc1" 95.7

// next record "CCCNC(=O)Nc1ccc(Oc2ncnc3cc(OC)c(OC)cc23)cc1Cl" 97.6

// next record "C=CC(=O)Nc1cccc(Sc2nc(Nc3ccc(N4CCN(C)CC4)cc3)ncc2Cl)c1" 87.2

// next record Cn1cc(C2=C(c3cn(CCCSC(=N)N)c4ccccc34)C(=O)NC2=O)c2ccccc21 [Ro 31-8220 mesylate] 123

// next record "O=S(=O)(c1cccc2cnccc12)N1CCCNCC1" 101

// next record "Cc1ccc(S(=O)(=O)/C=C/C#N)cc1" 103

// next record "O=Nc1c(-c2c(O)[nH]c3ccccc23)[nH]c2ccccc12" 90.1

// next record "CN(c1ncccc1CNc1nc(Nc2ccc3c(c2)CC(=O)N3)ncc1C(F)(F)F)S(C)(=O)=O" 117

// next record "O=c1cc(-c2ccc(O)cc2)oc2cc(O)cc(O)c12" 101

// next record "Clc1ccc(C2(c3ccc(-c4cn[nH]c4)cc3)CCNCC2)cc1" 112

// next record "Nc1nc(N)c2nc(-c3cccc(O)c3)c(-c3cccc(O)c3)nc2n1" 110

// next record "Nc1cc(C(F)(F)F)c(-c2cc(N3CCOCC3)nc(N3CCOCC3)n2)cn1" 107

// next record CN1CC[C@H](c2c(O)cc(O)c3c(=O)cc(-c4ccccc4Cl)oc23)[C@H](O)C1 [Flavopiridol (Alvocidib)] 99.8

// next record "N#CC(=C(/N)Sc1ccccc1N)/C(C#N)=C(\N)Sc1ccccc1N" 94.3

###

Tested on: Plasmodium falciparum NF54/iGP1_RE9H ulg8 stage V gametocytes
test_details: gametocyte viability (luciferase signal relative to DMSO control) (% of DMSO control); higher = less gametocytocidal activity, active = 50 or less
settings: concentration: 10 µM; exposure time: 72 h
Where a name gives a salt, the structure may show the parent alone.
Friendly reminder: gametocyte viability below 100 is True, at or above is False.

Hello, is gametocyte viability of the following molecule strictly smaller than 100? "Cc1nc(Nc2ncc(C(=O)Nc3c(C)cccc3Cl)s2)cc(N2CCN(CCO)CC2)n1" True

// next record "COc1cc2c(Oc3ccc(NC(=O)C4(C(=O)Nc5ccc(F)cc5)CC4)cc3F)ccnc2cc1OCCCN1CCOCC1" True

// next record Clc1ccc(Nc2nnc(Cc3ccncc3)c3ccccc23)cc1 [Vatalanib dihydrochloride (PTK787)] False

// next record "CC[C@@H]1C(=O)N(C)c2cnc(Nc3ccc(C(=O)NC4CCN(C)CC4)cc3OC)nc2N1C1CCCC1" True

// next record O=c1c(O)c(-c2ccc(O)c(O)c2)oc2cc(O)cc(O)c12 [Quercetin (Sophoretin)] False

// next record "Cc1[nH]nc2ccc(-c3cncc(OC[C@@H](N)Cc4ccccc4)c3)cc12" False

// next record CO[C@H]1C[C@@H]2CC[C@@H](C)[C@@](O)(O2)C(=O)C(=O)N2CCCC[C@H]2C(=O)O[C@H]([C@H](C)C[C@@H]2CC[C@@H](OP(C)(C)=O)[C@H](OC)C2)CC(=O)[C@H](C)/C=C(\C)[C@@H](O)[C@@H](OC)C(=O)[C@H](C)C[C@H](C)/C=C/C=C/C=C/1C [Deforolimus (Ridaforolimus)] True

###

System: Plasmodium falciparum NF54/iGP1_RE9H ulg8 stage V gametocytes
test_details: gametocyte viability (luciferase signal relative to DMSO control) (% of DMSO control); higher = less gametocytocidal activity, active = 50 or less
settings: concentration: 10 µM; exposure time: 72 h
experimental_readout: gametocyte viability
// response body must contain only the number

Consider the compound shown here: "CN([C@@H](Cc1ccc(OS(=O)(=O)c2cccc3cnccc23)cc1)C(=O)N1CCN(c2ccccc2)CC1)S(=O)(=O)c1cccc2cnccc12" What is its recorded gametocyte viability? 81.8

// next record "O=C1NC(=O)/C(=C/c2ccc(-c3ccc(F)cc3O)o2)S1" 110

// next record "c1ccc2c(-c3cnn4cc(-c5ccc(N6CCNCC6)cc5)cnc34)ccnc2c1" 73.3

// next record CCOc1cc2ncc(C#N)c(Nc3ccc(OCc4ccccn4)c(Cl)c3)c2cc1NC(=O)/C=C/CN(C)C [Neratinib (HKI-272)] 104

// next record "Cc1ccc(C(=O)Nc2ccc(CN3CCN(C)CC3)c(C(F)(F)F)c2)cc1C#Cc1cnc2cccnn12" 130

// next record "CC(C)(C)c1cnc(CSc2cnc(NC(=O)C3CCNCC3)s2)o1" 101

// next record "c1cncc(CN2CCC(n3ncc4c(N5CCOCC5)nc(-c5ccc6[nH]ccc6c5)nc43)CC2)c1" 103

// next record "O=C(O)c1ccc2c(c1)nc(Nc1cccc(Cl)c1)c1ccncc12" 107

// next record Cc1ccc(-n2nc(C(C)(C)C)cc2NC(=O)Nc2ccc(OCCN3CCOCC3)c3ccccc23)cc1 [BIRB 796 (Doramapimod)] 98.8

// next record Oc1cc(O)cc(/C=C/c2ccc(O)c(O)c2)c1 [Piceatannol] 38.4

###

Tested on: Plasmodium falciparum NF54/iGP1_RE9H ulg8 stage V gametocytes
test_details: gametocyte viability (luciferase signal relative to DMSO control) (% of DMSO control); higher = less gametocytocidal activity, active = 50 or less
settings: concentration: 1 µM; exposure time: 72 h
For each record, write down the corresponding gametocyte viability.
// response body must contain only the number

Consider the compound shown here: "Nc1nc(Nc2ccc(S(N)(=O)=O)cc2)nn1C(=O)c1c(F)cccc1F" What is its recorded gametocyte viability? 101

// next record "Nc1ncnc2c1c(-c1cnc3[nH]ccc3c1)nn2C1CCCC1" 101

// next record "CC(C)c1cc(/C=C(\C#N)C(=O)NCCCc2ccccc2)cc(C(C)C)c1O" 99.4

// next record CNC(=O)c1cc(Oc2ccc(NC(=O)Nc3cc(C(C)(C)C)nn3-c3ccc4ncccc4c3)c(F)c2)ccn1 [DCC-2036 (Rebastinib)] 103

// next record "N#CC(=Cc1ccc2[nH]ccc2c1)C(N)=C(C#N)C#N" 100

###

Tested on: Plasmodium falciparum NF54/iGP1_RE9H ulg8 stage V gametocytes
test_details: gametocyte viability (luciferase signal relative to DMSO control) (% of DMSO control); higher = less gametocytocidal activity, active = 50 or less
settings: concentration: 10 µM; exposure time: 72 h
experimental_readout: gametocyte viability
// response body must contain only the number

Consider the compound shown here: "Cc1cc(Nc2cc(N3CCN(C)CC3)nc(/C=C/c3ccccc3)n2)n[nH]1" What is its recorded gametocyte viability? 71.4

// next record "Cc1cc(=O)c2c(O)c3c(O)cc(O)c4c5c(O)cc(O)c6c(O)c7c(=O)cc(C)c8c1c2c(c34)c(c65)c78" 100

// next record "C=CC(=O)Nc1cccc(Oc2nc(Nc3ccc(N4CCN(C)CC4)cc3OC)ncc2Cl)c1" 97.3

// next record "CC(C)n1cnc2c(NCc3ccccc3)nc(NCCO)nc21" 91

// next record "Cc1ccc(C(=O)Nc2cccc(C(F)(F)F)c2)cc1Nc1nc(-c2cccnc2)nc2c1cnn2C" 98.7

// next record "CN(C)Cc1cccc(N=C(c2ccccc2)c2c(O)[nH]c3cc(C(=O)N(C)C)ccc23)c1" 121

// next record "CN(C)Cc1cccc(N=C(c2ccccc2)c2c(O)[nH]c3cc(C(N)=O)ccc23)c1" 122

// next record "Cc1ccc(-c2nn(C(C)(C)C)c3ncnc(N)c23)cc1" 105

// next record "CC(C)c1cc(/C=C(\C#N)C(=O)NCCCc2ccccc2)cc(C(C)C)c1O" 97.2

// next record "C=CC(=O)N1CCC[C@@H](n2nc(-c3ccc(Oc4ccccc4)cc3)c3c(N)ncnc32)C1" 104

// next record "N#CC(=Cc1ccc(O)c(O)c1)C(=O)NCc1ccccc1" 101
